Source listed as ChEMBL document CHEMBL5131541.

Test: Tmax in ICR mouse at 100 mg/kg, po measured upto 48 hrs by LC/MS analysis
Assay type: ADME, organism-based
Settings: in vivo
readoutName: Tmax (h)
Just the number please, in h, no unit attached.

Nc1ncnc2c1c(-c1ccc(Oc3ccccc3)cc1)nn2C1CCN(C2CCN(CC#Cc3ccc4c(c3)CN(C3CCC(=O)NC3=O)C4=O)CC2)CC1 (configuration not stated)
8.3

Here's the next entry for you.
Requested field: Tmax. Item: Nc1ncnc2c1c(-c1ccc(Oc3ccccc3)cc1)nn2[C@@H]1CCCN(C(=O)[C@H]2CCCC[C@H]2C(=O)NCC#CCN2CCN(CC#Cc3ccc4c(c3)CN(C3CCC(=O)NC3=O)C4=O)CC2)C1 (some centres not stated) 0.7

----------
Below is a list of entries, each paired with its recorded half-life value.
Assay: Half life in Sprague-Dawley rat at 10 mg/kg, po administered as cassette dose measured upto 24 hrs by LC-MS analysis
Type: ADME, organism-based
Conditions: in vivo
Answer with a number only, understood to be in h.

Nc1ncnc2c1c(-c1ccc(Oc3ccccc3)cc1)nn2[C@@H]1CCCN(C(=O)CCC(=O)N2CCN(CC#Cc3ccc4c(c3)CN(C3CCC(=O)NC3=O)C4=O)CC2)C1 (some centres not stated)
6.5

Now look at this one.
# half-life lookup, item Nc1ncnc2c1c(-c1ccc(Oc3ccccc3)cc1)nn2[C@@H]1CCCN(C(=O)CC(=O)NCC#CCN2CCN(CC#Cc3ccc4c(c3)CN(C3CCC(=O)NC3=O)C4=O)CC2)C1 (some centres not stated) 7.9

----------
Target: Tyrosine-protein kinase BTK (Homo sapiens)
Sequence (Q06187 whole entry): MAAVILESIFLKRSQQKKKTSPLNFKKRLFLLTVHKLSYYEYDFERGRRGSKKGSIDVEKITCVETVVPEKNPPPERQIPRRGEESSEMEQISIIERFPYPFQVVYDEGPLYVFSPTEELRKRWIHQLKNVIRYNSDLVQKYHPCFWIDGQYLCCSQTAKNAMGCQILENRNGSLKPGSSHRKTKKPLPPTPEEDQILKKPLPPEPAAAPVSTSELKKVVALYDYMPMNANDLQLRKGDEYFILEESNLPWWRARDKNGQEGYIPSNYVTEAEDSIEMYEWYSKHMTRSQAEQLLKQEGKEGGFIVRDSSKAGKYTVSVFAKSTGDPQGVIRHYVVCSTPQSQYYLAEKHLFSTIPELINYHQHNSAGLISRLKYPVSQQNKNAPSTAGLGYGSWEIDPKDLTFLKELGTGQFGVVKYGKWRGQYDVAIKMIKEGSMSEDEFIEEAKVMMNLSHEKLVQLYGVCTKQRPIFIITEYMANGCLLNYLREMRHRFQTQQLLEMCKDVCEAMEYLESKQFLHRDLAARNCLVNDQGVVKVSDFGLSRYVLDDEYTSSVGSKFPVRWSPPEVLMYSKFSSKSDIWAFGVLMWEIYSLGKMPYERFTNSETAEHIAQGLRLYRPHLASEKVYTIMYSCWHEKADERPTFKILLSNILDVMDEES
Assay: Induction of BTK degradation in human MINO cells incubated for 24 hrs by Western blot
Type: cell-based
Settings: dose 1-1000 nM, DDE = dose-dependent effect
readoutName: Activity

Nc1ncnc2c1c(-c1ccc(Oc3ccccc3)cc1)nn2[C@@H]1CCCN(C(=O)CCCCC(=O)NCC#CCN2CCN(CC#Cc3ccc4c(c3)CN(C3CCC(=O)NC3=O)C4=O)CC2)C1 (stereo partly drawn)
Dde
Nc1ncnc2c1c(-c1ccc(Oc3ccccc3)cc1)nn2[C@@H]1CCCN(C(=O)/C=C/C(=O)N2CCN(CC#Cc3ccc4c(c3)CN(C3CCC(=O)NC3=O)C4=O)CC2)C1 (stereo partly drawn)
Dde
Nc1ncnc2c1c(-c1ccc(Oc3ccccc3)cc1)nn2[C@@H]1CCCN(C(=O)[C@H]2CCCC[C@H]2C(=O)N2CCN(CC#Cc3ccc4c(c3)CN(C3CCC(=O)NC3=O)C4=O)CC2)C1 (stereo partly drawn)
Dde

----------
Assay: Clearance in ICR mouse at 2 mg/kg, iv measured upto 48 hrs by LC/MS analysis
Assay type: ADME, organism-based
Conditions: in vivo
readoutName: clearance (mL/min/kg)
Please reply with the bare figure in mL/min/kg and do not write the unit itself.

Requested field: clearance. Item: Nc1ncnc2c1c(-c1ccc(Oc3ccccc3)cc1)nn2C1CCN(C2CCN(CC#Cc3ccc4c(c3)CN(C3CCC(=O)NC3=O)C4=O)CC2)CC1 (stereo unspecified) 11.8

----------
The following compounds are listed with their measured AUC(0-t) at 24 h values.
Test: AUC (0 to t) in Sprague-Dawley rat at 5 to 10 mg/kg, po administered as cassette dose measured upto 24 hrs by LC-MS analysis
Format: ADME, organism-based
Set-up: time < 24 hrs, route po
Conditions: in vivo, dose 5-10 mg/kg

// lookup AUC(0-t) at 24 h for O=C1CCC(N2C(=O)c3cccc(N4CCN(CC5CCN(CC#CCOc6ccc(C(F)(F)F)cc6)CC5)CC4)c3C2=O)C(=O)N1 (configuration not stated) 4350 ng·h/mL

Any idea what AUC(0-t) at 24 h was measured for O=C1CCC(N2Cc3cc(C#CCN4CCN(c5ccc(C(F)(F)F)cc5)CC4)ccc3C2=O)C(=O)N1 (configuration not stated) ? 15300 ng·h/mL

What value of measured AUC(0-t) at 24 h is listed for O=C1CCC(N2C(=O)c3cccc(N4CCN(CC5CCN(CCCCOc6ccc(C(F)(F)F)cc6)CC5)CC4)c3C2=O)C(=O)N1 (configuration not stated) ? 1130 ng·h/mL

// query AUC(0-t) at 24 h value for entry O=C1CCC(N2C(=O)c3cccc(N4CCN(C5CCN(CCCCOc6ccc(C(F)(F)F)cc6)CC5)CC4)c3C2=O)C(=O)N1 (configuration not stated) 1160 ng·h/mL

Any idea what AUC(0-t) at 24 h was measured for O=C1CCC(N2C(=O)c3ccc(N4CCN(C5CN(CCCCOc6ccc(C(F)(F)F)cc6)C5)CC4)cc3C2=O)C(=O)N1 (configuration not stated) ? 2810 ng·h/mL

If you can, please state the reported AUC(0-t) at 24 h value of O=C1CCC(N2C(=O)c3ccc(N4CCN(CC#CCN5CCN(c6ccc(C(F)(F)F)cc6)CC5)CC4)cc3C2=O)C(=O)N1 (configuration not stated) . 1940 ng·h/mL

What value of measured AUC(0-t) at 24 h is listed for Nc1ncnc2c1c(-c1ccc(Oc3ccccc3)cc1)nn2[C@@H]1CCCN(C(=O)[C@H]2CCCC[C@H]2C(=O)NCC#CCN2CCN(CC#Cc3ccc4c(c3)CN(C3CCC(=O)NC3=O)C4=O)CC2)C1 (some centres not stated) ? 247 ng·h/mL

----------
Assay: Tmax in Sprague-Dawley rat at 5 to 10 mg/kg, po administered as cassette dose measured upto 24 hrs by LC-MS analysis
Type: ADME, organism-based
Conditions: in vivo, dose 5-10 mg/kg
# MET = Tmax below 30 min (exclusive); NOT MET = Tmax at/above 30 min

// known answers, use as guide
O=C1CCC(N2C(=O)c3cccc(N4CCN(CC5CCN(CCCCOc6ccc(C(F)(F)F)cc6)CC5)CC4)c3C2=O)C(=O)N1 (stereo not drawn)
NOT MET
Nc1ncnc2c1c(-c1ccc(Oc3ccccc3)cc1)nn2[C@@H]1CCCN(C(=O)C2(C(=O)N3CCN(CC#Cc4ccc5c(c4)CN(C4CCC(=O)NC4=O)C5=O)CC3)CC2)C1 (stereo partly drawn)
NOT MET
Nc1ncnc2c1c(-c1ccc(Oc3ccccc3)cc1)nn2[C@@H]1CCCN(C(=O)[C@H]2CCCC[C@H]2C(=O)NCC#CCN2CCN(CC#Cc3ccc4c(c3)CN(C3CCC(=O)NC3=O)C4=O)CC2)C1 (stereo partly drawn)
NOT MET

Confirm or reject: Tmax of Nc1ncnc2c1c(-c1ccc(Oc3ccccc3)cc1)nn2C1CCN(C2CCN(CC#Cc3ccc4c(c3)CN(C3CCC(=O)NC3=O)C4=O)CC2)CC1 (stereo not drawn) lies strictly below 30 min NOT MET

----------
Cmax values by entry
Assay: Cmax in Sprague-Dawley rat at 5 to 10 mg/kg, po administered as cassette dose measured upto 24 hrs by LC-MS analysis
Assay type: ADME, organism-based
Design: time < 24 hrs, route po
Details: in vivo, dose 5-10 mg/kg
Only the number, expressed in ng/mL, is required.

Sample records with Cmax:
O=C1CCC(N2C(=O)c3cccc(N4CCN(CC#CCN5CCN(c6ccc(C(F)(F)F)cc6)CC5)CC4)c3C2=O)C(=O)N1 (stereo unspecified)
194
O=C1CCC(N2C(=O)c3ccc(N4CCN(C5CN(CCCCOc6ccc(C(F)(F)F)cc6)C5)CC4)cc3C2=O)C(=O)N1 (stereo unspecified)
223
Nc1ncnc2c1c(-c1ccc(Oc3ccccc3)cc1)nn2[C@@H]1CCCN(C(=O)C2(C(=O)N3CCN(CC#Cc4ccc5c(c4)CN(C4CCC(=O)NC4=O)C5=O)CC3)CC2)C1 (stereo partly specified)
782
O=C1CCC(N2Cc3cc(CCCN4CCN(CC#CCOc5ccc(C(F)(F)F)cc5)CC4)ccc3C2=O)C(=O)N1 (stereo unspecified)
99
Nc1ncnc2c1c(-c1ccc(Oc3ccccc3)cc1)nn2[C@@H]1CCCN(C(=O)[C@H]2CCCC[C@H]2C(=O)N2CCN(CC#Cc3ccc4c(c3)CN(C3CCC(=O)NC3=O)C4=O)CC2)C1 (stereo partly specified)
29

Looking for the measured Cmax of Nc1ncnc2c1c(-c1ccc(Oc3ccccc3)cc1)nn2[C@@H]1CCCN(C(=O)C2(C(=O)NCC#CCN3CCN(CC#Cc4ccc5c(c4)CN(C4CCC(=O)NC4=O)C5=O)CC3)CC2)C1 (stereo partly specified) , can you help? 77

----------
Assay: Dose normalized AUC (0 to t) in Sprague-Dawley rat at 5 to 10 mg/kg, po administered as cassette dose measured upto 24 hrs by LC-MS analysis
Format: ADME, organism-based
Conditions: in vivo, dose 5-10 mg/kg
readoutName: AUCt/dose (ng·h/mL/mg)
Numbers only; they are read as ng·h/mL/mg.

Return reported AUCt/dose; argument: Nc1ncnc2c1c(-c1ccc(Oc3ccccc3)cc1)nn2[C@@H]1CCCN(C(=O)/C=C/C(=O)NCC#CCN2CCN(CC#Cc3ccc4c(c3)CN(C3CCC(=O)NC3=O)C4=O)CC2)C1 (stereo partly specified) 2

Return reported AUCt/dose; argument: O=C1CCC(N2C(=O)c3cccc(N4CCN(CC5CCN(CCCCOc6ccc(C(F)(F)F)cc6)CC5)CC4)c3C2=O)C(=O)N1 (stereo unspecified) 113

I'd like to know its AUCt/dose. The compound in question is Nc1ncnc2c1c(-c1ccc(Oc3ccccc3)cc1)nn2[C@@H]1CCCN(C(=O)[C@H]2CC[C@H](C(=O)NCC#CCN3CCN(CC#Cc4ccc5c(c4)CN(C4CCC(=O)NC4=O)C5=O)CC3)CC2)C1 (stereo partly specified) 11

Tell me the measured AUCt/dose of O=C1CCC(N2C(=O)c3cccc(N4CCN(CC#CCN5CCN(c6ccc(C(F)(F)F)cc6)CC5)CC4)c3C2=O)C(=O)N1 (stereo unspecified) , please. 172

Suppose we examine the compound O=C1CCC(N2C(=O)c3ccc(N4CCN(CC#CCN5CCN(c6ccc(C(F)(F)F)cc6)CC5)CC4)cc3C2=O)C(=O)N1 (stereo unspecified) ; what AUCt/dose value has been reported? 194

Reported AUCt/dose for Nc1ncnc2c1c(-c1ccc(Oc3ccccc3)cc1)nn2[C@@H]1CCCN(C(=O)[C@H]2CC[C@H](C(=O)N3CCN(CC#Cc4ccc5c(c4)CN(C4CCC(=O)NC4=O)C5=O)CC3)CC2)C1 (stereo partly specified) : what is it? 2
